Each entry below lists one item and its recorded pKd value.
system: rabbit anti-mouse IgG antibody (Oryctolagus cuniculus); assay: SPR; conditions: RNA with 5' A24 extension captured on biotin-dT24 SA chip; 25 C
pKd here is simply -log10 of the concentration when that concentration is written in mol/L.

Example cases with answers are listed next.
GGGAGAAUUCCGACCAGAAGCGCAAGCCGGCCCUUGGAAGGCUAGUCGGUCUUUCCUCUCUCCUCCUUCUUCU [SEQ ID NO: 4 RNA aptamer]    6.99
GGGAGAAUUCCGACCAGAAGUUUUUAAACCGCGCCUUGGAAGCGUACGUUGGCCUUUCCUCUCUCCUCCUUCUUCU [SEQ ID NO: 2 RNA aptamer]    7.29
GGGAGAAUUCCGACCAGAAGCAAAUUGCCGGGCCUUGGAAGCCAAGUCGCUUUCCUCUCUCCUCCUUCUUCU [SEQ ID NO: 3 RNA aptamer]    6.93
GGGAGAAUUCCGACCAGAAGUUCGAUACGCCGUGGGGUGACGUUGGCUACCUUUCCUCUCUCCUCCUUCUUCU [SEQ ID NO: 5 RNA aptamer]    10.83

[ask] So what's the measured pKd for this one? GGGAGAAUUCCGACCAGAAGAAGUUCGAUACGCCGUGGGGUGACGUUGGCUGCCCUUUCCUCUCUCCUCCUUCUUCU [SEQ ID NO: 1 RNA aptamer]
[reply] 10.89

* * *

Each entry below lists one item and its recorded binding signal value.
system: goat IgG (Capra hircus); experiment: filter; conditions: specificity control, 100 nM protein
Give just the number in % bound; leave the unit off.

Example cases with answers are listed next.
GGGAGAAUUCCGACCAGAAGCAAAUUGCCGGGCCUUGGAAGCCAAGUCGCUUUCCUCUCUCCUCCUUCUUCU [SEQ ID NO: 3 RNA aptamer]    1
GGGAGAAUUCCGACCAGAAGAAGUUCGAUACGCCGUGGGGUGACGUUGGCUGCCCUUUCCUCUCUCCUCCUUCUUCU [SEQ ID NO: 1 RNA aptamer]    0.8

[ask] Field: binding signal (goat IgG (Capra hircus)). Entry: GGGAGAAUUCCGACCAGAAGUUUUUAAACCGCGCCUUGGAAGCGUACGUUGGCCUUUCCUCUCUCCUCCUUCUUCU [SEQ ID NO: 2 RNA aptamer]
[reply] 0.7

[ask] Field: binding signal (goat IgG (Capra hircus)). Entry: GGGAGAAUUCCGACCAGAAGUUCGAUACGCCGUGGGGUGACGUUGGCUACCUUUCCUCUCUCCUCCUUCUUCU [SEQ ID NO: 5 RNA aptamer]
[reply] 0.3

[ask] Field: binding signal (goat IgG (Capra hircus)). Entry: GGGAGAAUUCCGACCAGAAGCGCAAGCCGGCCCUUGGAAGGCUAGUCGGUCUUUCCUCUCUCCUCCUUCUUCU [SEQ ID NO: 4 RNA aptamer]
[reply] 0.3
